- Test system: E. coli ATCC 25922
- test.details: MIC, twofold microdilution, standard strain
- Format: cell-based, Escherichia coli
- test.context: Escherichia coli, ATCC25922; standard strain, 18 h
# maps each entry to its MIC
parameter: MIC (µg/mL)

O=C(O)c1cn(C2CC2)c2cc(N3CCN(C(=O)CCCCCCl)CC3)c(F)cc2c1=O 0.8
O=C(O)c1cn(C2CC2)c2cc(N3CCN(C(=O)CCCCBr)CC3)c(F)cc2c1=O 0.025
O=C(O)c1cn(C2CC2)c2cc(N3CCN(CC(=O)N4CCN(c5cc6c(cc5F)c(=O)c(C(=O)O)cn6C5CC5)CC4)CC3)c(F)cc2c1=O 6.4
O=C(O)c1cn(C2CC2)c2cc(N3CCN(C(=O)CCCCCBr)CC3)c(F)cc2c1=O 1.6
C=CC(=O)N1CCN(c2cc3c(cc2F)c(=O)c(C(=O)O)cn3C2CC2)CC1 0.1
O=C(O)c1cn(C2CC2)c2cc(N3CCN(C(=O)C4CC4)CC3)c(F)cc2c1=O 0.05
O=C(O)c1cn(C2CC2)c2cc(N3CCN(CCCCCC(=O)N4CCN(c5cc6c(cc5F)c(=O)c(C(=O)O)cn6C5CC5)CC4)CC3)c(F)cc2c1=O 6.4

----------
- System: S. aureus NCTC 4163
- test.details: MIC, twofold microdilution, standard strain
- Assay type: cell-based
- test.context: Staphylococcus aureus, NCTC4163, 18 h
Criterion: MIC strictly under 0.2 µg/mL. Met: 1 (yes). Not met: 0 (no).

O=C(O)c1cn(C2CC2)c2cc(N3CCN(C(=O)CCl)CC3)c(F)cc2c1=O 1 (yes)
O=C(O)c1cn(C2CC2)c2cc(N3CCN(CCCCC(=O)N4CCN(c5cc6c(cc5F)c(=O)c(C(=O)O)cn6C5CC5)CC4)CC3)c(F)cc2c1=O 0 (no)
O=C(O)c1cn(C2CC2)c2cc(N3CCN(C(=O)C4CC4)CC3)c(F)cc2c1=O 1 (yes)
C=CC(=O)N1CCN(c2cc3c(cc2F)c(=O)c(C(=O)O)cn3C2CC2)CC1 1 (yes)
O=C(O)c1cn(C2CC2)c2cc(N3CCN(C(=O)CCBr)CC3)c(F)cc2c1=O 1 (yes)
O=C(O)c1cn(C2CC2)c2cc(N3CCN(CC(=O)N4CCN(c5cc6c(cc5F)c(=O)c(C(=O)O)cn6C5CC5)CC4)CC3)c(F)cc2c1=O 0 (no)
O=C(O)c1cn(C2CC2)c2cc(N3CCN(CCCCCCCCCCC(=O)N4CCN(c5cc6c(cc5F)c(=O)c(C(=O)O)cn6C5CC5)CC4)CC3)c(F)cc2c1=O 0 (no)
O=C(O)c1cn(C2CC2)c2cc(N3CCN(C(=O)CCCCCCCCCCBr)CC3)c(F)cc2c1=O 0 (no)

----------
- Test system: M. tuberculosis H37Rv
- test.details: Tuberculostatic activity, Microplate Alamar Blue Assay (MIC)
- Type: cell-based, Mycobacterium tuberculosis
- test.context: Mycobacterium tuberculosis, H37RV; MABA; read-out: MIC M. tuberculosis H37Rv
parameter: MIC (µg/mL)

O=C(O)c1cn(C2CC2)c2cc(N3CCN(C(=O)CCCCCl)CC3)c(F)cc2c1=O 0.5
O=C(O)c1cn(C2CC2)c2cc(N3CCN(C(=O)CCCCl)CC3)c(F)cc2c1=O 0.5
O=C(O)c1cn(C2CC2)c2cc(N3CCN(CCCC(=O)N4CCN(c5cc6c(cc5F)c(=O)c(C(=O)O)cn6C5CC5)CC4)CC3)c(F)cc2c1=O 8
O=C(O)c1cn(C2CC2)c2cc(N3CCN(C(=O)CCCCCBr)CC3)c(F)cc2c1=O 1
O=C(O)c1cn(C2CC2)c2cc(N3CCN(C(=O)CCCCCCl)CC3)c(F)cc2c1=O 0.5
O=C(O)c1cn(C2CC2)c2cc(N3CCN(CC(=O)N4CCN(c5cc6c(cc5F)c(=O)c(C(=O)O)cn6C5CC5)CC4)CC3)c(F)cc2c1=O 32
O=C(O)c1cn(C2CC2)c2cc(N3CCN(C(=O)C4CC4)CC3)c(F)cc2c1=O 1
O=C(O)c1cn(C2CC2)c2cc(N3CCN(C(=O)CCCC(F)(F)F)CC3)c(F)cc2c1=O 64
C=CC(=O)N1CCN(c2cc3c(cc2F)c(=O)c(C(=O)O)cn3C2CC2)CC1 4
O=C(O)c1cn(C2CC2)c2cc(N3CCN(C(=O)CCBr)CC3)c(F)cc2c1=O 2
O=C(O)c1cn(C2CC2)c2cc(N3CCN(C(=O)CCCCBr)CC3)c(F)cc2c1=O 0.5
O=C(O)c1cn(C2CC2)c2cc(N3CCN(C(=O)CCCl)CC3)c(F)cc2c1=O 2
O=C(O)c1cn(C2CC2)c2cc(N3CCN(C(=O)CBr)CC3)c(F)cc2c1=O 32
O=C(O)c1cn(C2CC2)c2cc(N3CCN(C(=O)CCCCCCCCCCBr)CC3)c(F)cc2c1=O 2
O=C(O)c1cn(C2CC2)c2cc(N3CCN(C(=O)CC(F)(F)F)CC3)c(F)cc2c1=O 64

----------
- Test system: E. coli 520
- test.details: MIC, twofold microdilution, clinical strain
- Format: cell-based
- test.context: Escherichia coli, 18 h
# maps each entry to its MIC
parameter: MIC

compound	val
O=C(O)c1cn(C2CC2)c2cc(N3CCN(C(=O)C4CC4)CC3)c(F)cc2c1=O [Compound 2]	0.2 µg/mL
O=C(O)c1cn(C2CC2)c2cc(N3CCN(C(=O)CBr)CC3)c(F)cc2c1=O [Compound 8]	0.2 µg/mL
C=CC(=O)N1CCN(c2cc3c(cc2F)c(=O)c(C(=O)O)cn3C2CC2)CC1 [Compound 1]	1.6 µg/mL
O=C(O)c1cn(C2CC2)c2cc(N3CCN(C(=O)CCCCCCl)CC3)c(F)cc2c1=O [Compound 7]	6.4 µg/mL

----------
- Tested on: K. pneumoniae 510
- test.details: MIC, twofold microdilution, clinical strain
- Assay type: cell-based, Klebsiella pneumoniae
- test.context: Klebsiella pneumoniae, 510; clinical strain, 18 h
# maps each entry to its MIC
parameter: MIC

compound	val
O=C(O)c1cn(C2CC2)c2cc(N3CCN(C(=O)CCCBr)CC3)c(F)cc2c1=O [Compound 10]	6.4 µg/mL
O=C(O)c1cn(C2CC2)c2cc(N3CCN(C(=O)CCCCCBr)CC3)c(F)cc2c1=O [Compound 12]	> 25.6 µg/mL
O=C(O)c1cn(C2CC2)c2cc(N3CCN(C(=O)CCCCCCl)CC3)c(F)cc2c1=O [Compound 7]	> 25.6 µg/mL
O=C(O)c1cn(C2CC2)c2cc(N3CCN(C(=O)CC(F)(F)F)CC3)c(F)cc2c1=O [Compound 14]	> 25.6 µg/mL
O=C(O)c1cn(C2CC2)c2cc(N3CCN(CCCC(=O)N4CCN(c5cc6c(cc5F)c(=O)c(C(=O)O)cn6C5CC5)CC4)CC3)c(F)cc2c1=O [Compound 18, CP–Butyryl–CP Dimer]	> 25.6 µg/mL
O=C(O)c1cn(C2CC2)c2cc(N3CCN(C(=O)CCBr)CC3)c(F)cc2c1=O [Compound 9]	> 25.6 µg/mL
O=C(O)c1cn(C2CC2)c2cc(N3CCN(C(=O)CCCCl)CC3)c(F)cc2c1=O [Compound 5]	6.4 µg/mL
O=C(O)c1cn(C2CC2)c2cc(N3CCN(C(=O)CBr)CC3)c(F)cc2c1=O [Compound 8]	25.6 µg/mL
O=C(O)c1cn(C2CC2)c2cc(N3CCN(CCCCC(=O)N4CCN(c5cc6c(cc5F)c(=O)c(C(=O)O)cn6C5CC5)CC4)CC3)c(F)cc2c1=O [Compound 19, CP–Pentanoyl–CP Dimer]	> 25.6 µg/mL
O=C(O)c1cn(C2CC2)c2cc(N3CCN(C(=O)CCl)CC3)c(F)cc2c1=O [Compound 3]	25.6 µg/mL
O=C(O)c1cn(C2CC2)c2cc(N3CCN(CCCCCC(=O)N4CCN(c5cc6c(cc5F)c(=O)c(C(=O)O)cn6C5CC5)CC4)CC3)c(F)cc2c1=O [Compound 20, CP–Hexanoyl–CP Dimer]	> 25.6 µg/mL
O=C(O)c1cn(C2CC2)c2cc(N3CCN(C(=O)CCCCCl)CC3)c(F)cc2c1=O [Compound 6]	> 25.6 µg/mL
O=C(O)c1cn(C2CC2)c2cc(N3CCN(CC(=O)N4CCN(c5cc6c(cc5F)c(=O)c(C(=O)O)cn6C5CC5)CC4)CC3)c(F)cc2c1=O [Compound 17, CP–Acetyl–CP Dimer]	> 25.6 µg/mL
O=C(O)c1cn(C2CC2)c2cc(N3CCN(C(=O)CCCC(F)(F)F)CC3)c(F)cc2c1=O [Compound 16]	> 25.6 µg/mL

----------
# maps each entry to its MIC
- System: S. pasteuri KR 4358
- test.details: MIC, twofold microdilution, clinical strain
- Type: cell-based
- test.context: Staphylococcus pasteuri, KR4358, 18 h
parameter: MIC (µg/mL)

O=C(O)c1cn(C2CC2)c2cc(N3CCN(C(=O)CCCCCl)CC3)c(F)cc2c1=O 0.2
O=C(O)c1cn(C2CC2)c2cc(N3CCN(C(=O)CCC(F)(F)F)CC3)c(F)cc2c1=O 0.2
O=C(O)c1cn(C2CC2)c2cc(N3CCN(C(=O)CBr)CC3)c(F)cc2c1=O 0.2
O=C(O)c1cn(C2CC2)c2cc(N3CCN(C(=O)CC(F)(F)F)CC3)c(F)cc2c1=O 0.2
O=C(O)c1cn(C2CC2)c2cc(N3CCN(CCCCC(=O)N4CCN(c5cc6c(cc5F)c(=O)c(C(=O)O)cn6C5CC5)CC4)CC3)c(F)cc2c1=O 1.6
O=C(O)c1cn(C2CC2)c2cc(N3CCN(C(=O)CCBr)CC3)c(F)cc2c1=O 0.2
O=C(O)c1cn(C2CC2)c2cc(N3CCN(C(=O)CCCCl)CC3)c(F)cc2c1=O 0.2
O=C(O)c1cn(C2CC2)c2cc(N3CCN(CCCC(=O)N4CCN(c5cc6c(cc5F)c(=O)c(C(=O)O)cn6C5CC5)CC4)CC3)c(F)cc2c1=O 3.2
O=C(O)c1cn(C2CC2)c2cc(N3CCN(C(=O)CCCCCCl)CC3)c(F)cc2c1=O 0.2
O=C(O)c1cn(C2CC2)c2cc(N3CCN(C(=O)CCCC(F)(F)F)CC3)c(F)cc2c1=O 0.4
O=C(O)c1cn(C2CC2)c2cc(N3CCN(C(=O)CCCl)CC3)c(F)cc2c1=O 0.2
O=C(O)c1cn(C2CC2)c2cc(N3CCN(C(=O)C4CC4)CC3)c(F)cc2c1=O 0.2
C=CC(=O)N1CCN(c2cc3c(cc2F)c(=O)c(C(=O)O)cn3C2CC2)CC1 0.4
O=C(O)c1cn(C2CC2)c2cc(N3CCN(C(=O)CCCBr)CC3)c(F)cc2c1=O 0.2
